# Test system: Candida albicans
# method: Antimicrobial activity against Candida albicans P5 after 48 hrs by broth macrodilution method
# Type: functional
# condition-label: P5, 48 h
readout-label: MIC (µg/mL)
Quick reminder: number only, in µg/mL, skip the unit.

>>> reported("C[C@@H]1[C@H](O)[C@@H](C)/C=C/C=C/C=C/C=C/C=C/C=C/C=C/[C@H](O[C@@H]2O[C@H](C)[C@@H](O)[C@H](N)[C@@H]2O)C[C@@H]2O[C@](O)(C[C@@H](O)C[C@@H](O)[C@H](O)CC[C@@H](O)C[C@@H](O)CC(=O)O[C@H]1C)C[C@H](O)[C@H]2C(=O)O")
0.125

In: # lookup: MIC of C/C=C/C/C=C/CCC(=O)[C@H]1O[C@H]1C(N)=O
Out: 8

In: Recorded MIC of C[C@@H]1C[C@@H]([C@H](O)CC2CC(=O)NC(=O)C2)C(=O)[C@@H](C)C1 [CYCLOHEXIMIDE] , please.
Out: 800

In: May I ask what MIC has been recorded for CCC(C)n1ncn(-c2ccc(N3CCN(c4ccc(OC[C@H]5CO[C@](Cn6cncn6)(c6ccc(Cl)cc6Cl)O5)cc4)CC3)cc2)c1=O (some centres undefined) ?
Out: 0.016

---

MIC values for the compounds below.
# Test system: Candida albicans
# method: Antimicrobial activity against Candida albicans P5 after 48 hrs by broth macrodilution method
# Format: functional
# condition-label: P5, 48 h
Reply numerically in µg/mL, unit not repeated.

Sample answers from the record:
>>> reported("OC(Cn1cncn1)(Cn1cncn1)c1ccc(F)cc1F [FLUCONAZOLE]")
1
>>> reported("CN(C)c1ccc(C(=C2C=CC(=[N+](C)C)C=C2)c2ccc(N(C)C)cc2)cc1.[Cl-] [GENTIAN VIOLET]")
0.4
>>> reported("CC(=O)N1CCN(c2ccc(OC[C@H]3CO[C@](Cn4ccnc4)(c4ccc(Cl)cc4Cl)O3)cc2)CC1 [KETOCONAZOLE]")
0.064
>>> reported("C[C@@H](c1ncncc1F)[C@](O)(Cn1cncn1)c1ccc(F)cc1F [VORICONAZOLE]")
0.032

In: Fill in the blank: the reported MIC of Cc1cc(C)nc(NC(=O)NS(=O)(=O)c2ccccc2C(=O)O)n1 [SULFOMETURON] is ____.
Out: 10

In: Param item = CC/N=c1\cc2oc3cc(NCC)c(C)cc3c(-c3ccccc3C(=O)OCC)c-2cc1C.Cl [RHODAMINE 6G HYDROCHLORIDE] ; retrieve measured MIC.
Out: 8

In: Give the measured MIC of CCCCNC(=O)n1c(NC(=O)OC)nc2ccccc21 [BENOMYL] .
Out: 20
